MEASUREMENT PROTOCOL: Drug solubility in medium-chain triglycerides (MCT, Miglyol 812 N); SORESOS 96-well assay, miniaturized shake-flask or literature
SETTINGS: decadic logarithm of molar solubility in MCTs (Miglyol 812 N), 24 h at room temperature; no literature source given
PROPERTY LABEL: log10 S [M] (M)

Solved entries (count: 2):
[[record]]
compound = "OCCOc1ccc(/C(=C(/CCCl)c2ccccc2)c2ccccc2)cc1 [ospemifene]"
numeric_result = -1.47

[[record]]
compound = "O=C(O)COC(=O)Cc1ccccc1Nc1c(Cl)cccc1Cl [aceclofenac]"
numeric_result = -1.84


[P] Cn1cc(-c2ccc(S(=O)(=O)[C@@H]3C[C@@H](C(=O)NC4(C#N)CC4)N(C(=O)C4(C(F)(F)F)CC4)C3)c(C(F)(F)F)c2)cn1 [RO5459072]
[Q] CCOC(=O)C1=C(COCCN)NC(C)=C(C(=O)OC)C1c1ccccc1Cl (stereo not shown) [amlodipine]
[R] CC(C)(C)c1ccc(CN(CCc2cc(F)cc(C(F)(F)F)c2)C(=O)c2cc(C(F)(F)F)cc(Cl)c2F)cc1 [RO5072744]
[S] CCc1cc(CCN(Cc2ccc(C(C)(C)C)cc2)C(=O)c2cc(C(F)(F)F)cc(Cl)c2F)ccc1Cl [RO5132822]
Order the items by recorded log10 S [M]; the first position goes to the largest value. In plain terms: list the labels in the order you were asked to. R, S, Q, P

[1] Cc1onc(-c2ccc(F)cn2)c1COc1ccc(C(=O)N2CCS(=O)(=O)CC2)cn1 [RO5292065]
[2] COC(=O)N1CC[C@@H]2[C@@H]1CCC[C@@]2(O)C#Cc1cccc(C)c1 [RO6805580]
# returns the entry with the larger log10 S [M]; inputs 1 and 2 Pick one; state its label. 2
(2: -1.31 M, 1: -2.89 M)

[P] Cc1cc(OCc2ccc(-c3ccc(OC(F)(F)F)cc3)nc2)ccc1OC(C)(C)C(=O)O [RO4883572]
[Q] COc1ccc(Cl)cc1S(=O)(=O)N1CCOc2c(C)cc(C(=O)Nc3ccc(CC(=O)O)cc3)cc21 [RO5114497]
# returns the entry with the larger log10 S [M]; inputs P and Q Pick one; state its label. P
(P: -2.52 M, Q: -3.73 M)
